All values here come from ChEMBL document CHEMBL3988442.

Percent Effect values, listed per item
system under test: Tyrosyl-tRNA synthetase, putative (Trypanosoma cruzi (strain CL Brener))
experimental details: Trypanosoma cruzi tyrosyl tRNA synthetase (TcYRS) _High Tyrosine SOP
Format: functional
Set-up: scale not given: in the data most compounds retested in dose-response had high values
test conditions: 30 µM

# compound, Percent Effect [%]
data = [
    ("Cc1cc2c(=O)n3c(nc2s1)CCN(Cc1ccncc1)CC3", 3.23),
    ("O=C(C1=CCCC1)N1CCC[C@]2(C[C@@H](OCc3ccncc3)CO2)C1", 5.21),
    ("CC(C)CS(=O)(=O)CC(=O)N(C)Cc1ccc(OC(F)F)cc1", -0.529),
    ("O=C(CCc1cscn1)N1CCCC(n2ccnc2)C1 (centres undefined)", 8.33),
    ("Cc1nn(C)c(C)c1C1CCCN1Cc1nc(C2CC2)no1 (centres undefined)", 5.94),
    ("Cc1nc(CN2CCOCC3(CCN(c4cccnc4)CC3)C2)cs1", 3.96),
    ("CN(Cc1cn2ccccc2n1)C1CCCN(c2cccnn2)C1 (centres undefined)", 7.84),
    ("O=C(NCc1cc[nH]n1)N1CCCCC(N2CCCC2)C1 (centres undefined)", 7.39),
    ("CC(=O)N1CCCN(C(=O)NCc2ccccn2)CC1", 1.48),
    ("CC1CN(CC(=O)NC2CCCC2)CCN1c1ccc2nncn2n1 (centres undefined)", 7.18),
    ("CN1CCN(Cc2cn3c(n2)CN(C(=O)N2CCOCC2)CC3)CC1", 4.3),
    ("COC[C@H]1CCC[C@]12CN(CCc1ccccc1)CCO2", 1.06),
    ("COc1ncccc1CNC(=O)NCCNC(=O)c1ccco1", 4.74),
    ("Cc1cc(=O)[nH]c(SCC(=O)N(C)CC2Cc3ccccc3CN2C)n1 (centres undefined)", 6.45),
    ("COc1cc(CNCc2ccc(C(C)O)cc2)cc2c1OCO2 (centres undefined)", 9.9),
    ("Cc1nc(C)n(C2CCCN(C(=O)Cc3cccnc3)C2)n1 (centres undefined)", 5.94),
    ("CN(C)c1cc(C(=O)N2CCCC(n3cccn3)C2)ccn1 (centres undefined)", -4.31),
    ("CN(C(=O)c1ccccn1)c1nc2c(s1)CCc1c-2cnn1C", -4.3),
    ("CN(Cc1ccccn1)C1COC2(CCN(Cc3cccnc3)CC2)C1 (centres undefined)", 5.32),
    ("COCCCC1CCCN(C(=O)CCc2cc(O)no2)C1 (centres undefined)", 8.42),
    ("Cc1csc(N2CCN(C(=O)CCc3nccs3)CC2)n1", 12.3),
    ("COc1ccccc1OCC(=O)Nc1ncccc1Cl", 3.16),
    ("CCC(CC)c1cc(CNC(=O)N2CCOCC2CC)on1 (centres undefined)", 0),
    ("Cc1noc(C)c1C(=O)N1CC[C@H]2C[C@@H](c3ccncn3)O[C@@H]2C1", 5.79),
    ("O=C(O)C(c1ccc2c(c1)OCO2)N1CCC(C(=O)N2CCCC2)CC1 (centres undefined)", 4.92),
    ("CCO[C@@H]1CO[C@@]2(CCCN(S(=O)(=O)c3cccnc3)C2)C1", 5.79),
    ("Cn1ccnc1COc1ccc(CN2CCN(CCO)CC2)cc1", 10.7),
    ("Cc1c(C(=O)NCC2CCCO2)nnn1-c1cccc2c1CCN(C)C2 (centres undefined)", -1.06),
    ("COc1cccc(CN2CCOC(Cn3nc(C)cc3C)C2)c1 (centres undefined)", 7.92),
]

###

system under test: Proteasome subunit beta (Trypanosoma cruzi) (UniProt O96673)
Sequence (O96673 as listed by the source): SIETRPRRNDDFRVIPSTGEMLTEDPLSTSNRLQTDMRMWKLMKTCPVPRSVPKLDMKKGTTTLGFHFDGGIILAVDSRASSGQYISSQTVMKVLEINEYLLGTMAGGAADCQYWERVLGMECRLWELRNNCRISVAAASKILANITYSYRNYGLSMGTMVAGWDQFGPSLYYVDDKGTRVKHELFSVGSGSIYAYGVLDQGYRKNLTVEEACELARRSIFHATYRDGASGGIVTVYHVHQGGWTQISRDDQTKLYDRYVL
experimental details: Trypanosoma cruzi proteasome chymotrypsin-like activity (TcProtChymo) assay.
Type: functional
Parameters: scale not given: in the data most compounds retested in dose-response had high values
test conditions: 9.37 µM
Please note: yes (1) applies when Percent Effect is 10% or greater, and no (0) applies otherwise.

# molecule, category label
records = [
    ("NC(=O)CC1CCN(C(=O)NCc2ccccc2-n2cccn2)CC1", "no (0)"),
    ("c1cncc(N2CCOCC3(CCCN(c4nncs4)C3)C2)c1 (centres undefined)", "no (0)"),
    ("CCC(CC)C(O)CNC(=O)Nc1cc(C)nn1C (centres undefined)", "no (0)"),
    ("Cn1nc(CNC(=O)c2nc3ccccc3s2)c2c1CCOC2", "no (0)"),
    ("Cc1nc(C)n(CC2CCCN2Cc2ccn(-c3ccccc3)n2)n1 (centres undefined)", "no (0)"),
    ("O=C(CCc1cccnc1)N1CCCC(n2cncn2)C1 (centres undefined)", "no (0)"),
    ("N#Cc1ccc(OCCN2CCc3c(ncn3C3CC3)C2)cc1", "no (0)"),
    ("Cc1ncc(CNC(=O)N(C)C2CCN(c3ccccc3)C2=O)s1 (centres undefined)", "no (0)"),
    ("CCc1cc(N2CCSCC2)n2nc(C)c(C)c2n1", "yes (1)"),
    ("CCN(C(=O)COC)C(c1cccnc1)c1cc(C)cc(C)c1 (centres undefined)", "yes (1)"),
    ("C1CC(CN2CCOCC3(CCN(C4CCOCC4)C3)C2)CCO1 (centres undefined)", "yes (1)"),
    ("Cc1nn(C)c2c(NCc3cccnc3)nc(C3CC3)nc12", "yes (1)"),
    ("Cc1cnn(CC(C)NCc2ccc(-n3cccn3)cc2)c1 (centres undefined)", "no (0)"),
    ("CCC(=O)Nc1ccc2c(c1)CN(C(=O)c1ccco1)CC2", "no (0)"),
    ("COCCN(C)C[C@@H]1CN(C(=O)c2ccoc2)C[C@@H]1CO", "no (0)"),
    ("Cc1nc(C)n(CC2CN(CC(=O)Nc3cccnc3)CCO2)n1 (centres undefined)", "no (0)"),
    ("COc1cccc(CN(C)C(=O)CN2CCN(c3nccn3C)CC2)c1", "yes (1)"),
    ("O=C(c1cscn1)N1CCC2(CCN(Cc3nccs3)C2)CC1", "yes (1)"),
    ("Cn1c(Cn2cccn2)nnc1C1CCCN(c2ccncc2F)C1 (centres undefined)", "yes (1)"),
    ("COc1ccccc1CNC(=O)N1CCCC(c2nncn2C)C1 (centres undefined)", "no (0)"),
    ("COc1ccc(N2CCC(C(=O)/N=c3/[nH]ccs3)CC2)nn1", "yes (1)"),
    ("O=C(C[C@@H]1COC[C@H]2CN(Cc3ccc(F)cc3)C[C@@H]12)N1CCOCC1", "no (0)"),
    ("N#Cc1cccc(CS(=O)(=O)NCC(O)Cc2ccccc2)c1 (centres undefined)", "no (0)"),
    ("CCc1nc(CC(=O)NCC(Cc2ccc(F)cc2)C(N)=O)cs1 (centres undefined)", "no (0)"),
    ("Cc1cnc(CN(C)C2CCN(CC(=O)Nc3nncs3)C2)o1 (centres undefined)", "no (0)"),
    ("O=S(=O)(Nc1cnn(C2CCOCC2)c1)c1ccc2c(c1)CCO2", "yes (1)"),
    ("O=C(c1cccs1)N1CC[C@H](O)[C@@H]1Cc1ccccc1", "no (0)"),
    ("Cc1cc(C)n(CC2CCCN2CC(=O)N(C)Cc2cnn(C)c2)n1 (centres undefined)", "yes (1)"),
    ("CCn1ncnc1C(NC(=O)CC1CCN(C(C)C)CC1)C1CC1 (centres undefined)", "no (0)"),
    ("Cn1cnc2c1C(COCc1cccnc1)N(Cc1ccccn1)CC2 (centres undefined)", "no (0)"),
    ("CCCNC(=O)CNc1cc(C(=O)N2CCSCC2)ccc1C", "no (0)"),
    ("c1cnn(CC2CN(Cc3nc(-c4ccsc4)no3)CCO2)c1 (centres undefined)", "no (0)"),
    ("CCN1CC2(CC1=O)CN(Cc1cnn(C)c1)CCN(C(=O)C(C)C)C2 (centres undefined)", "no (0)"),
    ("CCN1CCC(NC(=O)CN2CCc3c(nc(C4CC4)n3C)C2)CC1", "no (0)"),
    ("NCC(=O)N1CCCC(c2cncc(Nc3ncccn3)n2)C1 (centres undefined)", "yes (1)"),
    ("O=C(NCN1CCc2ccccc2C1)c1cnccn1", "yes (1)"),
    ("O=C(CN1CCCC(c2ccc(C(=O)O)cc2)C1)NC1CC1 (centres undefined)", "no (0)"),
    ("CC(C)C(=O)NCC(=O)N(C)C1CCCN(CCc2ccccc2)C1 (centres undefined)", "yes (1)"),
]

###

system under test: Proteasome subunit beta (Trypanosoma cruzi)
experimental details: Trypanosoma cruzi proteasome chymotrypsin-like activity (TcProtChymo) assay.
Format: functional
Set-up: scale not given: in the data most compounds retested in dose-response had high values
test conditions: 9.37 µM

# molecule, unit tag, Percent Effect
records = [
    ("CCC(CC)C(CNC(=O)Nc1cc(C)nn1C)N1CCOCC1 (centres undefined)", "%", 9.75),
    ("CC1=N[C@@]2(CC[C@@H]3CN(S(=O)(=O)N(C)C)C[C@@H]32)C(=O)N1CC(C)C", "%", 13.3),
    ("Cc1cccc(CN2CCC3(CCN(Cc4ccccn4)C3)C2=O)c1 (centres undefined)", "%", 6.95),
    ("O=C1C(NCc2nnc3n2CCCC3)CCCN1c1cccc(F)c1 (centres undefined)", "%", 16.8),
]
